target.of.assay: purine nucleoside phosphorylase (PNP) (Bos taurus)
Sequence (P55859 1-289): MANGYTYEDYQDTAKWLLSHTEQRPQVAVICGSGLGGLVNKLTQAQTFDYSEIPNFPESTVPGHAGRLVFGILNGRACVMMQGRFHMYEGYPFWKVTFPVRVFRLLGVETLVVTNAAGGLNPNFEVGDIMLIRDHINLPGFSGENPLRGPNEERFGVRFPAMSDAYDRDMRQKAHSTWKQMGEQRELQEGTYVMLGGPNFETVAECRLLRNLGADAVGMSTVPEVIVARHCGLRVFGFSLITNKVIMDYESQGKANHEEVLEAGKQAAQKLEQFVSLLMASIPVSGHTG
test: Purine nucleoside phosphorylase (PNP) radiochemical enzyme assay, [14C]-hypoxanthine formation from [14C]-inosine
condition.notes: IC50 (nM), table of Examples 36-42; phosphate concentration not printed in table (Ex. 37 and 38 values agree with 1 mM phosphate in text)
reported.metric: IC50 (nM)
Expressed in nM, but write only the number.

{"columns": ["compound", "IC50 [nM]"],
 "data": [
  ["Nc1nc(O)c2[nH]c(N)c(Cc3cccs3)c2n1 [reference compound]", 160]
]}

Turning now to a further compound:
q: I have this compound here, N#CCC(c1cccc(Cl)c1)c1c[nH]c2c(=O)[nH]cnc12 (centres unmarked) , and I need its recorded IC50.
a: 10

All values here come from patent US5726311A.
